- method.description: in vivo
- applied.conditions: Sprague-Dawley, rat, lung, inhaled, 1 mg/kg/day
measurement.label: concentration at 12 h

Respond only with concentration at 12 h recorded for CO[C@H]1C[C@@H]2CC[C@@H](C)[C@@](O)(O2)C(=O)C(=O)N2CCCC[C@H]2C(=O)O[C@H]([C@H](C)C[C@@H]2CC[C@@H](O)[C@H](OC)C2)CC(=O)[C@H](C)/C=C(\C)[C@@H](O)[C@@H](OC)C(=O)[C@H](C)C[C@H](C)/C=C/C=C/C=C/1C [Rapamycin] ~14800 ng/g

----------
- method.description: in vivo
- applied.conditions: Sprague-Dawley, rat, whole blood, inhaled, 1 mg/kg/day
measurement.label: concentration at 12 h
Write the figure, then the unit, nothing else.

Provide measured concentration at 12 h value, entry: CO[C@H]1C[C@@H]2CC[C@@H](C)[C@@](O)(O2)C(=O)C(=O)N2CCCC[C@H]2C(=O)O[C@H]([C@H](C)C[C@@H]2CC[C@@H](O)[C@H](OC)C2)CC(=O)[C@H](C)/C=C(\C)[C@@H](O)[C@@H](OC)C(=O)[C@H](C)C[C@H](C)/C=C/C=C/C=C/1C [Rapamycin] 645 ng/mL

----------
- method.description: 28-day repeat dose inhalation toxicokinetics, study 7300227
- Assay type: in vivo, Beagle dogs
- applied.conditions: Beagle, dog, lung; emitted dose 160 ug, repeat inhaled daily dose 40 ug, after 28 days; read-out: Lung 24 hr trough levels
measurement.label: concentration at 24 h (ng/g)
Note: unit ng/g is implicit; provide only the numeric part.

State its concentration at 24 h: "CO[C@H]1C[C@@H]2CC[C@@H](C)[C@@](O)(O2)C(=O)C(=O)N2CCCC[C@H]2C(=O)O[C@H]([C@H](C)C[C@@H]2CC[C@@H](O)[C@H](OC)C2)CC(=O)[C@H](C)/C=C(\C)[C@@H](O)[C@@H](OC)C(=O)[C@H](C)C[C@H](C)/C=C/C=C/C=C/1C" 32

----------
- method.description: in vivo
- applied.conditions: Sprague-Dawley, rat, lung, inhaled, 0.036 mg/kg/day
measurement.label: concentration at 12 h (ng/g)
Form entry: value (ng/g) — number only.

Give the value of concentration at 12 h reported for the following: CO[C@H]1C[C@@H]2CC[C@@H](C)[C@@](O)(O2)C(=O)C(=O)N2CCCC[C@H]2C(=O)O[C@H]([C@H](C)C[C@@H]2CC[C@@H](O)[C@H](OC)C2)CC(=O)[C@H](C)/C=C(\C)[C@@H](O)[C@@H](OC)C(=O)[C@H](C)C[C@H](C)/C=C/C=C/C=C/1C [Rapamycin] 95

----------
- method.description: in vivo
- applied.conditions: Sprague-Dawley, rat, whole blood, inhaled, 0.036 mg/kg/day
measurement.label: concentration at 12 h (ng/mL)
Give the value, in units of ng/mL, as a plain number.

Assign concentration at 12 h to the following record: "CO[C@H]1C[C@@H]2CC[C@@H](C)[C@@](O)(O2)C(=O)C(=O)N2CCCC[C@H]2C(=O)O[C@H]([C@H](C)C[C@@H]2CC[C@@H](O)[C@H](OC)C2)CC(=O)[C@H](C)/C=C(\C)[C@@H](O)[C@@H](OC)C(=O)[C@H](C)C[C@H](C)/C=C/C=C/C=C/1C" 4
